# Tested on: NCI-H23 lung
# PROTOCOL SUMMARY: NCI tumour cell line growth inhibition, 48 h
TGI by entry:
READOUT LABEL: TGI

>  <COMPOUND>
CC(C)=C[C@H]1CCC2(OCCO2)[C@]1(C)COCc1ccccc1

>  <MEASURED ON>
NCI-H23 lung

>  <READOUT LABEL>
TGI

>  <RESULT>
> 100 µM

$$$$
>  <COMPOUND>
N#Cc1[nH]c(=O)n(-c2ccccc2)c1N

>  <MEASURED ON>
NCI-H23 lung

>  <READOUT LABEL>
TGI

>  <RESULT>
> 10 µM

$$$$
>  <COMPOUND>
CC1(C)OC(=O)N(c2ccccc2)C12C=Cc1cc([N+](=O)[O-])ccc1O2 (centres undefined)

>  <MEASURED ON>
NCI-H23 lung

>  <READOUT LABEL>
TGI

>  <RESULT>
> 100 µM

$$$$
>  <COMPOUND>
COc1ccc(C(=O)c2cc(C)c(OC)c(C)c2)cc1OC(=O)CCl

>  <MEASURED ON>
NCI-H23 lung

>  <READOUT LABEL>
TGI

>  <RESULT>
> 100 µM

$$$$
>  <COMPOUND>
Cc1cc(NS(=O)(=O)c2ccc(Nc3c4ccccc4nc4c(C(=O)N5CCN(CCO)CC5)cccc34)cc2)no1

>  <MEASURED ON>
NCI-H23 lung

>  <READOUT LABEL>
TGI

>  <RESULT>
> 100 µM

$$$$
>  <COMPOUND>
CC1(C)/C(=C/N=O)N(O)C(C)(C)N1O

>  <MEASURED ON>
NCI-H23 lung

>  <READOUT LABEL>
TGI

>  <RESULT>
> 100 µM

$$$$
>  <COMPOUND>
COc1cc2ncnc(-n3ncc4cc(NC(=O)Nc5ccccc5)ccc43)c2cc1OC

>  <MEASURED ON>
NCI-H23 lung

>  <READOUT LABEL>
TGI

>  <RESULT>
4.4 µM

$$$$
>  <COMPOUND>
Clc1cc(Cl)c2ns[s+]c2c1Cl

>  <MEASURED ON>
NCI-H23 lung

>  <READOUT LABEL>
TGI

>  <RESULT>
85.2 µM

$$$$
>  <COMPOUND>
Cc1cc2nc(C=C(C(F)(F)F)C(F)(F)F)oc2cc1C

>  <MEASURED ON>
NCI-H23 lung

>  <READOUT LABEL>
TGI

>  <RESULT>
4.97 µM

$$$$
